molecular target: thrombin (Homo sapiens, UniProt P00734); experiment: Ki determinations thrombin, fluorogenic substrate Tosyl-GPR-AMC; type: biochemical; conditions: 20° C., thrombin 100 pM, Tosyl-GPR-AMC 20 μM, HBS pH 7.4; Ki class
MEASUREMENT_TYPE: Ki

Reference set (3 entries):
{"columns": ["COMPOUND", "Ki"],
 "data": [
  ["NC(=O)CN1CCCCC1CCNc1ncc(Cl)n(CCNCc2n[nH]c3ccc(Cl)cc23)c1=O (stereo not shown) [Example 96]", "0.005 to 0.03 µM"],
  ["Cc1cnc(NCCc2ccccn2)c(=O)n1CCNCCc1nc2ccc(Cl)cc2[nH]1 [Example 99]", "0.03 to 0.2 µM"],
  ["O=C(O)CN1CCCCC1CCNc1ncc(Cl)n(CCNCc2n[nH]c3ccc(Cl)cc23)c1=O (stereo not shown) [Example 97]", "< 0.005 µM"]
]}

Read the next record carefully.
Query: Indicate its recorded Ki; the compound in question is Cc1cnc(NCCNc2ccccn2)c(=O)n1CCNCc1cccc(Cl)c1 [Example 56]
Response: 0.03 to 0.2 µM

---

molecular target: thrombin (Homo sapiens); assay: Ki determinations thrombin, fluorogenic substrate Tosyl-GPR-AMC; format: biochemical; conditions: 20° C., thrombin 100 pM, Tosyl-GPR-AMC 20 μM, HBS pH 7.4; Ki class
Listed below: Ki values for each entry.

Query: Consider the compound O=c1c(NCCc2ccccn2)ncc(Cl)n1CCNCc1n[nH]c2ccc(Cl)cc12 and give its recorded Ki.
Response: < 0.005 µM

Query: Please look at this compound and report its Ki: Cc1cnc(NCCC2CCCCN2)c(=O)n1CCNCc1cccc(Cl)c1 (stereo not drawn)
Response: 0.005 to 0.03 µM

Query: Quick one: give measured Ki for Cc1cnc(NCCC2CCCCN2C)c(=O)n1CCNCc1n[nH]c2ccc(Cl)cc12 (single isomer, unassigned) [95 (E1)]
Response: < 0.005 µM

Query: Retrieve Ki measured for O=c1c(NCC(F)(F)c2cccc[n+]2[O-])ncc(Cl)n1CCNCc1n[nH]c2ccc(Cl)cc12 and print it.
Response: < 0.005 µM

---

// Ki lookup, one value per entry
Target: thrombin (Homo sapiens)
Test: Ki determinations thrombin, fluorogenic substrate Tosyl-GPR-AMC
Format: biochemical
Conditions: 20° C., thrombin 100 pM, Tosyl-GPR-AMC 20 μM, HBS pH 7.4; Ki class
Procedure: The Ki determinations were carried out at 20° C. with the fluorogenic substrate Tosyl-GPR-AMC (Bachem, Heidelberg, Germany; λexc=370 nm, λem=450 nm) at a thrombin concentration of 100 pM in HBS pH 7.4. The substrate was added to a final concentration of 20 μM in a total assay volume of 100 μl. The enzymatic reaction was started by addition of substrate. The emission at 450 nm was monitored in 1 minute intervals for 10 minutes using a polarstar reader (BMG Laboratories, Offenburg, Germany). […]

Study these solved cases before continuing.
{"columns": ["COMPOUND", "MEASUREMENT_TYPE", "RESULT"],
 "data": [
  ["Cc1cnc(NCCC2CCCCN2C)c(=O)n1CCNCc1n[nH]c2ccc(Cl)cc12 (single isomer, unassigned) [95 (E2)]", "Ki", "< 0.005 µM"],
  ["O=c1c(NCCC2CCCCN2)ncc(Cl)n1CCNCc1n[nH]c2ccc(Cl)cc12 (single isomer, unassigned) [101 (E2)]", "Ki", "< 0.005 µM"]
]}

Query: Look up and state reported Ki for O=c1c(NCC(F)(F)c2ccccn2)ncc(Cl)n1CCNCc1n[nH]c2ccc(Cl)cc12
Response: < 0.005 µM

Query: Input Cc1cnc(NCC(F)(F)C2CCCCN2)c(=O)n1CCNCc1n[nH]c2ccc(Cl)cc12 (single isomer, unassigned) [85 (E1)] , output reported Ki.
Response: < 0.005 µM

Query: Answer with the recorded Ki for the compound listed here: Cc1cnc(NC(Cc2ccccc2)C(N)=O)c(=O)n1CCNCCc1cccc(Cl)c1 (centres unmarked)
Response: 0.03 to 0.2 µM

Query: Determine its reported Ki: Cc1nc(N)ccc1CNCCn1c(Cl)cnc(NCC(F)(F)c2cccc[n+]2[O-])c1=O
Response: 0.005 to 0.03 µM

Query: Supply recorded Ki for O=c1c(NCC(F)(F)c2cccc[n+]2[O-])ncc(Cl)n1CCNCCc1cccc(Cl)c1 here.
Response: < 0.005 µM

Query: Fill in Ki for record Cc1nc(N)ccc1CNCCn1c(Cl)cnc(NCC(F)(F)c2ccccn2)c1=O
Response: 0.03 to 0.2 µM
